Target: human matrix metalloproteinase-2 (MMP-2; gelatinase A) (Homo sapiens, UniProt P08253)
Construct: to prepare the enzymatically active mature form of the enzyme; endogenous in cells
Sequence (P08253 110-660): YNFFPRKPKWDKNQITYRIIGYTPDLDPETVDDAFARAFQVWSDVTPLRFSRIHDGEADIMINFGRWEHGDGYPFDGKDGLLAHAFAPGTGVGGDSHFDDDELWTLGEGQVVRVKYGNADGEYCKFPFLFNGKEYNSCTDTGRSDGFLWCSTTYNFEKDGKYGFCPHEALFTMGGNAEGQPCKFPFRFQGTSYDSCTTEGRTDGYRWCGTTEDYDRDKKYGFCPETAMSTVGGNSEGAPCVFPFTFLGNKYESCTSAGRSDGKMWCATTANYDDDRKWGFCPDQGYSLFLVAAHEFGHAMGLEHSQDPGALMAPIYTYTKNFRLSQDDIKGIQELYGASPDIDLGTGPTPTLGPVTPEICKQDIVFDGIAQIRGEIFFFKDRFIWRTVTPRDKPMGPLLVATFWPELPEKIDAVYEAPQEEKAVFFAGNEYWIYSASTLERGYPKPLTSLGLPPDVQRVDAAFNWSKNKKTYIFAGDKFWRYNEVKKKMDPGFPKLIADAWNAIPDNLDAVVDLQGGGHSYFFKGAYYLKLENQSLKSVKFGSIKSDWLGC
Assay: Inhibition of human matrix metalloproteinase-2 (gelatinase A)
Details: trypsin-activated MMP-2 from human dermal fibroblast culture supernatant; read-out: MMP-2 (50% inhibition)
pIC50: −log10 of the molar value.
Here the recorded pIC50 is given for each entry.

COMPOUND STRUCTURE STRING: Cn1c(=O)c2sccc2n(CCCS)c1=O
pIC50: 4.70
//
COMPOUND STRUCTURE STRING: CCn1c(=O)c2ccccc2n(CCCS)c1=O
pIC50: 4.86
//
COMPOUND STRUCTURE STRING: Cn1c(=O)c2ccccc2n(CCS)c1=O
pIC50: 4.01
//
COMPOUND STRUCTURE STRING: O=c1[nH]c2ccccc2c(=O)n1CCCCS
pIC50: 5.08

* * *

Listed below: pIC50 values for each entry.
Molecular target: Clostridium histolyticum collagenase (EC 3.4.24.3)
Assay: Inhibition of Clostridium histolyticum collagenase, spectrophotometric FALGPA assay
Format: biochemical
Conditions: chromogenic substrate FALGPA; read-out: C. histolyticum (50% inhibition)
pIC50: −log10 of the molar value.
ASSAY METRIC: pIC50

COMPOUND: CC(S)Cn1c(=O)[nH]c(=O)c2ccccc21 (racemic)
SYSTEM: Clostridium histolyticum collagenase (EC 3.4.24.3)
QUANTITATIVE READOUT: 4.68

COMPOUND: CC(S)CCn1c(=O)[nH]c(=O)c2ccccc21 (racemic)
SYSTEM: Clostridium histolyticum collagenase (EC 3.4.24.3)
QUANTITATIVE READOUT: 4.56

COMPOUND: Cn1c(=O)c2ccccc2n(CCS)c1=O
SYSTEM: Clostridium histolyticum collagenase (EC 3.4.24.3)
QUANTITATIVE READOUT: 4.88

COMPOUND: O=c1[nH]c(=O)n(CCS)c2ccccc12
SYSTEM: Clostridium histolyticum collagenase (EC 3.4.24.3)
QUANTITATIVE READOUT: 4.41

COMPOUND: COc1cc2c(=O)n(C)c(=O)n(CCS)c2cc1OC
SYSTEM: Clostridium histolyticum collagenase (EC 3.4.24.3)
QUANTITATIVE READOUT: 4.50

COMPOUND: O=c1[nH]c(=O)n(CCCS)c2ccccc12
SYSTEM: Clostridium histolyticum collagenase (EC 3.4.24.3)
QUANTITATIVE READOUT: 4.27

COMPOUND: CCn1c(=O)c2ccccc2n(CCS)c1=O
SYSTEM: Clostridium histolyticum collagenase (EC 3.4.24.3)
QUANTITATIVE READOUT: 4.40

COMPOUND: Cn1c(=O)c2ccccc2n(CCCS)c1=O
SYSTEM: Clostridium histolyticum collagenase (EC 3.4.24.3)
QUANTITATIVE READOUT: 4.94

COMPOUND: O=c1c2ccccc2n(CCS)c(=O)n1Cc1ccccc1
SYSTEM: Clostridium histolyticum collagenase (EC 3.4.24.3)
QUANTITATIVE READOUT: 4.65

* * *

Target: human matrix metalloproteinase-9 (MMP-9; gelatinase B) (Homo sapiens)
Sequence (P14780 107-707 limits assumed): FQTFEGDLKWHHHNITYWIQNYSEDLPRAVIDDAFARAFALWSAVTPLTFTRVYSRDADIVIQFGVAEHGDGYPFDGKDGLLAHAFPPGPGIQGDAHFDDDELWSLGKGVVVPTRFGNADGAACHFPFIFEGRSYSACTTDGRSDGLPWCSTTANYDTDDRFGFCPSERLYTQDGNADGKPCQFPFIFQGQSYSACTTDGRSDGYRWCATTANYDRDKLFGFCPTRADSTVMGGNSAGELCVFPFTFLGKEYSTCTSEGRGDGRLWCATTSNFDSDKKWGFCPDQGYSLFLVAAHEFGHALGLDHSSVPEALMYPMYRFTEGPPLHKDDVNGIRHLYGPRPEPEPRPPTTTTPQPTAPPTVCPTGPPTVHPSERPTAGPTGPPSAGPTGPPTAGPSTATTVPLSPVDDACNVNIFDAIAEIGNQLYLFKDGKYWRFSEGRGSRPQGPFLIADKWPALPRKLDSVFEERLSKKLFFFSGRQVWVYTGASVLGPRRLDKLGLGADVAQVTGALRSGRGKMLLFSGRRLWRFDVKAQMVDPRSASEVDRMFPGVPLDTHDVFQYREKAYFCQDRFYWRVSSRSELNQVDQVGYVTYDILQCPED
Experiment: Inhibition of human matrix metalloproteinase-9 (gelatinase B)
Details: trypsin-activated native MMP-9 from human buffy coat; read-out: MMP-9 (50% inhibition)
Protocol: Native MMP-9 was reproducibly obtained with reasonable yield and purity from human buffy coat. […] 1984 μl assay buffer (100 mM Tris-HCl pH 7,5, 100 mM NaCl, 10 mM CaCl2, 0,05% Brij 35) • 2 μl inhibitor dissolved in DMSO, or DMSO alone as a solvent control • 4 μl enzyme (MMP-2, MMP-9, or the catalytic domain of MMP-8) • 10 μl Mca-Pro-Leu-Gly-Leu-Dap(Dnp)-Ala-Arg-NH2 in DMSO Method • 1. […] Record the increase in fluorescence intensity over 2 min. […]
Values of IC50 strictly less than 20 µM map to 1, and values of at least 20 µM map to -1.

COMPOUND: O=c1[nH]c(=O)n(CCS)c2ccccc12 [Example 5]
CLASS LABEL: 1
--
COMPOUND: Cn1c(=O)c2sccc2n(CCS)c1=O [Example 17]
CLASS LABEL: 1
--
COMPOUND: CCn1c(=O)c2ccccc2n(CCCS)c1=O [Example 9]
CLASS LABEL: -1
--
COMPOUND: O=c1[nH]c(=O)n(CCCS)c2ccccc12 [Example 4]
CLASS LABEL: 1
--
COMPOUND: Cn1c(=O)c2ccccc2n(CCCS)c1=O [Example 7]
CLASS LABEL: -1
--
COMPOUND: CC(CCS)n1c(=O)[nH]c2ccccc2c1=O (racemic) [Example 18]
CLASS LABEL: 1
--
COMPOUND: Cn1c(=O)c2ccccc2n(CCCSCC(=O)NO)c1=O [Example 20]
CLASS LABEL: -1
--
COMPOUND: Cn1c(=O)c2sccc2n(CCCS)c1=O [Example 14]
CLASS LABEL: -1

* * *

Target: human matrix metalloproteinase-2 (MMP-2; gelatinase A) (Homo sapiens, UniProt P08253)
Construct: to prepare the enzymatically active mature form of the enzyme; endogenous in cells
Experiment: Inhibition of human matrix metalloproteinase-2 (gelatinase A)
Conditions: trypsin-activated MMP-2 from human dermal fibroblast culture supernatant; read-out: MMP-2 (50% inhibition)
pIC50: −log10 of the molar value.
Decision: pIC50 >= 5 yields Yes, all other cases yield No.

COMPOUND: CC(S)Cn1c(=O)[nH]c(=O)c2ccccc21 (racemic) [Example 1]
CLASS LABEL: No
//
COMPOUND: Cn1c(=O)c2ccccc2n(CCCS)c1=O [Example 7]
CLASS LABEL: Yes
//
COMPOUND: CC(CS)Cn1c(=O)[nH]c2ccccc2c1=O (racemic) [Example 19]
CLASS LABEL: Yes
//
COMPOUND: O=c1[nH]c(=O)n(CCCS)c2ccccc12 [Example 4]
CLASS LABEL: Yes
//
COMPOUND: COc1cc2c(=O)n(C)c(=O)n(CCS)c2cc1OC [Example 10]
CLASS LABEL: Yes
//
COMPOUND: CC(C)(S)Cn1c(=O)[nH]c(=O)c2ccccc21 [Example 2]
CLASS LABEL: No
//
COMPOUND: Cn1c(=O)c2sccc2n(CCS)c1=O [Example 17]
CLASS LABEL: No
//
COMPOUND: O=c1[nH]c(=O)n(CCS)c2ccccc12 [Example 5]
CLASS LABEL: No

* * *

# key: entry, value: pKi
Molecular target: catalytic domain of human matrix metalloproteinase-8 (MMP-8; neutrophil collagenase) (Homo sapiens)
Construct: express heterologously only the catalytic domain, rather than the entire MMP-8, in Escherichia coli
Sequence (P22894 100-262 limits assumed): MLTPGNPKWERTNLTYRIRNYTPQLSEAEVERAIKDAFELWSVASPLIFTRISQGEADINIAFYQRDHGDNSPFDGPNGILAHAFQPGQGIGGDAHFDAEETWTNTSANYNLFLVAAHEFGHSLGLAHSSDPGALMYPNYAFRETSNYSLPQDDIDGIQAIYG
Test: Inhibition of catalytic domain of human MMP-8, fluorimetric assay, Dixon plot
Details: recombinant catalytic domain, Mca-Pro-Leu-Gly-Leu-Dap(Dnp)-Ala-Arg-NH2 substrate
pKi: −log10 of the molar value.

COMPOUND: O=c1[nH]c2ccccc2c(=O)n1CCCCS
pKi: 4.96

COMPOUND: O=c1[nH]c(=O)n(CCS)c2ccccc12
pKi: 4.15

COMPOUND: CC(CS)Cn1c(=O)[nH]c2ccccc2c1=O (racemic)
pKi: 5.52

COMPOUND: CC(S)CCn1c(=O)[nH]c(=O)c2ccccc21 (racemic)
pKi: 4.41

COMPOUND: O=c1[nH]c(=O)n(CCCS)c2ccccc12
pKi: 5.15

COMPOUND: O=c1[nH]c2ccccc2c(=O)n1CCCCCS
pKi: 4.70

COMPOUND: O=c1c2ccccc2n(CCS)c(=O)n1Cc1ccccc1
pKi: 4.48

COMPOUND: CC(CCS)n1c(=O)[nH]c2ccccc2c1=O (racemic)
pKi: 5.22

COMPOUND: CC(S)Cn1c(=O)[nH]c(=O)c2ccccc21 (racemic)
pKi: 4.48
